# assay-system: N_CTD (SARS-CoV-2 (Wuhan), UniProt P0DTC9 247-364)
# assay-protocol: MST
# condition-description: protein: recombinant; tags: 6xHis; chain copies: 2; label: Cy5 (Methods EMSA: Cy3); blunt
measured-property: Kd (nM)
Numeric only. Scale: nM

// sample dsRNA3 (dsRNA) RNA 1: AACCAUAACAUGACCAUGAGGUGCAG RNA 2: CUGCACCUCAUGGUCAUGUUAUGGUU , its Kd was 2550
